Test system HDAC6 (Homo sapiens (Human), UniProt Q9UBN7), IC50 listed for each of the molecules.
Dear colleague, please return just the value in µM, with no unit written.

Please review the following examples before continuing.
The reported value for COc1nc2ccccc2cc1-c1cnc([C@H](CCCCCC(=O)c2ncco2)NC(=O)Cn2cccc2)[nH]1 [Example 150] in terms of IC50 is 2.7

The reported value for COc1cc(-c2cnc([C@H](CCCCCC(=O)c3ncco3)NC(=O)C3CN(C)C3)[nH]2)c(F)cn1 [Example 178] in terms of IC50 is 5.3

---
The reported value for CN[C@@H](CCCCCC(=O)c1ncco1)c1ncc(-c2ccc3nc(C)ccc3c2)[nH]1 [Example 75] in terms of IC50 is 26

The reported value for COCC(=O)N[C@@H](CCCCCC(=O)c1ncco1)c1ncc(-c2cc3ccccc3nc2OC)[nH]1 [Example 147] in terms of IC50 is 15

The reported value for COc1cc2c(ccc(=O)n2C)cc1-c1cnc([C@H](CCCCCC(=O)c2ncco2)NC(=O)CN(C)C)[nH]1 [Example 92] in terms of IC50 is 4.5

The reported value for COc1cc2nc(C)ccc2cc1-c1cnc([C@H](CCCCCC(=O)c2ncco2)NC(=O)CN2CCNCC2=O)[nH]1 [Example 159] in terms of IC50 is 2.9

The reported value for O=C(CCCCC[C@H](NC(=O)c1cncs1)c1nc(-c2ccc(F)cc2)c[nH]1)c1ncco1 [Example 2] in terms of IC50 is 45

The reported value for COc1nc2ccccc2cc1-c1cnc([C@H](CCCCCC(=O)c2ncco2)NC(=O)C(C)(F)F)[nH]1 [Example 148] in terms of IC50 is 3.4

====

# System: human HDAC2 (Homo sapiens (Human))
# Sequence (Q92769 whole entry): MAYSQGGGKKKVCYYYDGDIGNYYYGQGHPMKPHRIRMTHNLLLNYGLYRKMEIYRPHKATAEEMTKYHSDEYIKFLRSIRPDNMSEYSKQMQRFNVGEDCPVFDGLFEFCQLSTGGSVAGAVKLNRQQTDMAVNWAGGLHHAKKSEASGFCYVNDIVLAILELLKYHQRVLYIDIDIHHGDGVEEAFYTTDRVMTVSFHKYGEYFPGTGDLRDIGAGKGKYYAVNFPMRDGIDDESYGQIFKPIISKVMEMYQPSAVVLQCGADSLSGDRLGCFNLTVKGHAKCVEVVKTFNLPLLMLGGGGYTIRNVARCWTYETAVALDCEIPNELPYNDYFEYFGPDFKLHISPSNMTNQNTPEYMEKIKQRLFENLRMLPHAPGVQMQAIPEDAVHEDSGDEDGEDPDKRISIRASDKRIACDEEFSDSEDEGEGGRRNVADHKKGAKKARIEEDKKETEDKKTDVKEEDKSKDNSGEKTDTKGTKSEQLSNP
# Protocol Text: HDAC2 inhibition assay (modified FLUOR DE LYS, 384-well)
# Format: biochemical
# Experimental Conditions: […] nM enzyme, 40 μM substrate BML-KI104, 3 h pre-incubation; read-out: HDAC2 IC50
Listed here are compounds together with their documented IC50.
Dear colleague, please return just the value in nM, with no unit written.

Please review the following examples before continuing.
The reported value for `Cc1ccc2cc(-c3c[nH]c([C@@H](N)CCCCCC(=O)c4ncco4)n3)ccc2n1` in terms of IC50 is 12

The reported value for `COc1cc2nc(C)ccc2cc1-c1cnc([C@H](CCCCCC(=O)c2ncco2)NC(=O)C2CN(C)C2)[nH]1` in terms of IC50 is 2.6

The reported value for `CCn1ccc2cc(-c3c[nH]c([C@@H](N)CCCCCC(=O)c4ncco4)n3)ccc2c1=O` in terms of IC50 is 9.9

The reported value for `N#Cc1nc(-c2ccc(F)cc2)oc1[C@@H](N)CCCCCC(=O)c1ncco1` in terms of IC50 is 250

The reported value for `N#Cc1nc(-c2ccc(F)cc2)[nH]c1[C@@H](N)CCCCCC(=O)c1ncco1` in terms of IC50 is 15

---
The reported value for `COc1cc2nc(C)ccc2cc1-c1cnc([C@H](CCCCCC(=O)c2ncco2)NC(=O)C2CCC3(CC2)CN(C)C3)[nH]1` in terms of IC50 is 5.8

The reported value for `CCN1CCC2(CC1)C[C@@H]2C(=O)N[C@@H](CCCCCC(=O)c1ncco1)c1[nH]c(-c2ccc(F)cc2)nc1Cl` in terms of IC50 is 0.38

The reported value for `COc1cc(-c2cnc([C@@H](N)CCCCCC(=O)c3ncco3)[nH]2)c(F)cn1` in terms of IC50 is 100

The reported value for `COc1ncccc1-c1cnc([C@@H](N)CCCCCC(=O)c2ncco2)o1` in terms of IC50 is 32

The reported value for `COc1cc2nc(C)ccc2cc1-c1cnc([C@H](CCCCCC(=O)c2ccon2)NC(=O)[C@H]2CC23CCN(C)CC3)[nH]1` in terms of IC50 is 0.87

The reported value for `N[C@@H](CCCCCC(=O)c1ncco1)c1ncc(-c2ccc3ncccc3c2)[nH]1` in terms of IC50 is 8.8

====

# System: human HDAC2 (Homo sapiens (Human))
# Protocol Text: HDAC2 inhibition assay (modified FLUOR DE LYS, 384-well)
# Type: biochemical
# Experimental Conditions: […] enzyme, 40 μM substrate BML-KI104, 3 h pre-incubation; read-out: HDAC2 IC50
Recorded Metric: IC50 (nM)
Dear colleague, please return just the value in nM, with no unit written.

Please review the following examples before continuing.
The recorded IC50 with human HDAC2 (Homo sapiens (Human)) for CN1CCC2(CC1)C[C@@H]2C(=O)N[C@@H](CCCCCC(=O)c1ccon1)c1nc(-c2ccccc2F)c[nH]1 [Example 39] was 0.57

The recorded IC50 with human HDAC2 (Homo sapiens (Human)) for N[C@@H](CCCCCC(=O)c1ccon1)c1cc(-c2ccc(F)cc2)on1 [Example 118] was 8

The recorded IC50 with human HDAC2 (Homo sapiens (Human)) for COc1cc2c(ccc(=O)n2C)cc1-c1cnc([C@H](CCCCCC(=O)c2ccon2)NC(=O)CN(C)C)[nH]1 [Example 93] was 2.2

The recorded IC50 with human HDAC2 (Homo sapiens (Human)) for COc1cc2nc(C)ccc2cc1-c1cnc([C@H](CCCCCC(=O)c2ncco2)NC(=O)C2COC(c3ccccc3)CO2)[nH]1 (some centres unmarked) [Example 172] was 100

The recorded IC50 with human HDAC2 (Homo sapiens (Human)) for Cn1cc2cc(-n3ccc([C@H](N)CCCCCC(=O)c4ncco4)n3)ccc2n1 [Example 127] was 2600

The recorded IC50 with human HDAC2 (Homo sapiens (Human)) for CN1CCC1C(=O)N[C@@H](CCCCCC(=O)c1ccon1)c1ncc(-c2ccccc2F)[nH]1 (some centres unmarked) [Example 60] was 0.41

Now look at this one.
The recorded IC50 with human HDAC2 (Homo sapiens (Human)) for CN1CCC(C(=O)N[C@@H](CCCCCC(=O)c2nccs2)c2nc(-c3ccc(F)cc3)c[nH]2)CC1 [Example 6] was 14

====

# System: human HDAC8 (Homo sapiens (Human), UniProt Q9BY41)
# Sequence (Q9BY41 whole entry): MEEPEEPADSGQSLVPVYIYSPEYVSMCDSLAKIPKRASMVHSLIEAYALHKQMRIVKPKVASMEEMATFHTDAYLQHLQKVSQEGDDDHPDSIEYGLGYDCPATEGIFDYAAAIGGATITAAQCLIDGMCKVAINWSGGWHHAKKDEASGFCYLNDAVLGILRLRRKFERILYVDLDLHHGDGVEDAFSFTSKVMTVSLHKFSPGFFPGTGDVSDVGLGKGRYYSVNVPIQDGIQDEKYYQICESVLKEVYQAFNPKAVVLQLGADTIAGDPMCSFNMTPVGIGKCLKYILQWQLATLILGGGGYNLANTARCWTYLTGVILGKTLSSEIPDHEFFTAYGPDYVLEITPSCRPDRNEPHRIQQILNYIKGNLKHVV
# Protocol Text: HDAC8 inhibition assay (modified FLUOR DE LYS, 384-well)
# Type: biochemical
# Experimental Conditions: […] nM enzyme, 200 μM substrate BML-KI178, 3 h pre-incubation; read-out: HDAC8 IC50
Listed here are compounds together with their documented log10 of IC50.
The common logarithm of IC50 in nM is what is listed.

Please review the following examples before continuing.
The reported value for `COc1cc2nc(C)ccc2cc1-c1cnc([C@H](CCCCCC(=O)c2ncco2)NC(=O)CN(C)C)[nH]1` in terms of log10 of IC50 is 1.84

The reported value for `CN(C)CC(=O)N[C@@H](CCCCCC(=O)c1ccon1)c1nc(Cl)c(-c2ccc(F)cc2)[nH]1` in terms of log10 of IC50 is 1.28

The reported value for `CCN1CCC2(CC1)C[C@@H]2C(=O)N[C@@H](CCCCCC(=O)c1ncco1)c1[nH]c(-c2ccc(F)cc2)nc1Cl` in terms of log10 of IC50 is 2.32

The reported value for `COc1cc2nc(C)ccc2cc1-c1cnc([C@H](CCCCCC(=O)c2ncco2)NC(=O)C2CN(C)C2)o1` in terms of log10 of IC50 is 2.11

---
The reported value for `O=C(CCCCC[C@H](NC(=O)c1cncs1)c1[nH]c(-c2ccc(F)cc2)nc1Cl)c1ncco1` in terms of log10 of IC50 is 1.79

====

# System: human HDAC3/SMRT heterodimer (Homo sapiens (Human), UniProt O15379)
# Sequence (O15379 whole entry): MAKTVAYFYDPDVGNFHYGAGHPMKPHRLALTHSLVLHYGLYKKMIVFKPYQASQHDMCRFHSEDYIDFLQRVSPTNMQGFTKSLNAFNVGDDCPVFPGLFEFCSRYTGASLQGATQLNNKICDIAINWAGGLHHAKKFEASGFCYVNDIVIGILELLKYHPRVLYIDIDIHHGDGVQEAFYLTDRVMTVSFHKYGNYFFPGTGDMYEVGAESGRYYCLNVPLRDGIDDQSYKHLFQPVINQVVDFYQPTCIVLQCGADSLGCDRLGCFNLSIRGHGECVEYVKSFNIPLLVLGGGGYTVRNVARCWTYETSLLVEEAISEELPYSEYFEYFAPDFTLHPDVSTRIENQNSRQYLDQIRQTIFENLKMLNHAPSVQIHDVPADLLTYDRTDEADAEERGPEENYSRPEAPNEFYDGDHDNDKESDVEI
# Sequence (Q9Y618 1-899 partner): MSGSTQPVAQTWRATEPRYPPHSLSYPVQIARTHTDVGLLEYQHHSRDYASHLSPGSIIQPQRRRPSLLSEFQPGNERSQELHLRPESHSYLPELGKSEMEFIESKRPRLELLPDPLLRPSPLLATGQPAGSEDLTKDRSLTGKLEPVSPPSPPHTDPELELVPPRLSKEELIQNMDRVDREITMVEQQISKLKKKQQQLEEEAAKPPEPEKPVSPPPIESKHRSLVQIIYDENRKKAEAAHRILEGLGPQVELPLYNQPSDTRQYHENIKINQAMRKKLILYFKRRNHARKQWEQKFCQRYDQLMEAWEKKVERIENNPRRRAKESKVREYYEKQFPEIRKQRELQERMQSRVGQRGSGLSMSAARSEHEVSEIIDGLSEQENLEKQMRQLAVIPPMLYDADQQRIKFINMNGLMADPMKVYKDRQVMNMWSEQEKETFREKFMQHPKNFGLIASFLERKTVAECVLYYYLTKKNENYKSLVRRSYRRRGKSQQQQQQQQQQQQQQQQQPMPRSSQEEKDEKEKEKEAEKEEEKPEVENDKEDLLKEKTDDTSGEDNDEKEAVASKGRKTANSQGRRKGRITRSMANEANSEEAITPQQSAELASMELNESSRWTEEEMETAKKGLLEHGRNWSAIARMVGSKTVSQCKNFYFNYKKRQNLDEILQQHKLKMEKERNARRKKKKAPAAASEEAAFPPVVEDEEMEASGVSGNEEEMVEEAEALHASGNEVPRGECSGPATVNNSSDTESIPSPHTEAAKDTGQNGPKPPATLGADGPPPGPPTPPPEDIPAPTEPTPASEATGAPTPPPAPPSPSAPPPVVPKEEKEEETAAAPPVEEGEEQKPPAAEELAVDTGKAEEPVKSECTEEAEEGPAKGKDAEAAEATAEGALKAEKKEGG
# Protocol Text: biochemical
Recorded Metric: IC50 (nM)
Dear colleague, please return just the value in nM, with no unit written.

The reported value for COc1cc2nc(C)ccc2cc1-c1cnc([C@H](CCCCCC(=O)c2ccon2)NC(=O)C2CN(C)C2)o1 [Example 108] in terms of IC50 is 0.19

The reported value for N[C@@H](CCCCCC(=O)c1ccon1)c1nc(Cl)c(-c2ccc(F)cc2)[nH]1 [Example 193] in terms of IC50 is 1.8

The reported value for N[C@@H](CCCCCC(=O)c1ncco1)c1[nH]c(-c2ccc(F)cc2)nc1Cl [Example 25] in terms of IC50 is 0.38

The reported value for COc1ncccc1-c1c[nH]c([C@@H](N)CCCCCC(=O)c2ccon2)n1 [Example 33] in terms of IC50 is 0.84

The reported value for N#Cc1nc(-c2ccc(F)cc2)[nH]c1[C@@H](N)CCCCCC(=O)c1ncco1 [Example 185] in terms of IC50 is 3.9

---
The reported value for COc1cc2nc(C)ccc2cc1-c1cnc([C@H](CCCCCC(=O)c2ncco2)NC(=O)C2CCC3(CC2)CN(C)C3)[nH]1 [Example 117] in terms of IC50 is 1.4

The reported value for Cc1ccc2cc(-c3cnc([C@H](CCCCCC(=O)c4ncco4)NC(=O)C4=NOC5(CCN(C)CC5)C4)o3)ccc2n1 [Example 116] in terms of IC50 is 1.5

The reported value for O=C1CC[C@@](CCCCCC(=O)c2ccon2)(c2nc(-c3ccc(-c4ncco4)cc3F)c[nH]2)N1 [Example 67] in terms of IC50 is 1.5

The reported value for Cc1ccc2cc(-c3cnc([C@H](CCCCCC(=O)c4ncco4)NC(=O)[C@H]4CC45CCN(C)CC5)o3)ccc2n1 [Example 109] in terms of IC50 is 7.5

The reported value for COc1ncccc1-c1cnc([C@@H](N)CCCCCC(=O)c2ncco2)o1 [Example 28] in terms of IC50 is 9.4

The reported value for O=C1CC[C@@](CCCCCC(=O)c2ccon2)(c2nc(-c3ccc(C4CC4)cc3F)c[nH]2)N1 [Example 68] in terms of IC50 is 0.55

The reported value for COc1ncccc1-c1cnc(C(CCCCCC(=O)c2ncco2)NC(=O)[C@H]2CC23CCN(C)CC3)o1 (stereo partly shown) [Example 114] in terms of IC50 is 13

The reported value for COc1ncccc1-c1c[nH]c([C@]2(CCCCCC(=O)c3ccon3)CCCC(=O)N2)n1 [Example 71] in terms of IC50 is 1.8

The reported value for COc1cc(-c2cnc([C@@H](N)CCCCCC(=O)c3ncco3)[nH]2)c(F)cn1 [Example 129] in terms of IC50 is 16

The reported value for COc1cc2nc(C)ccc2cc1-c1cnc([C@H](CCCCCC(=O)c2ncco2)NC(=O)C2CN(C)C2)o1 [Example 100] in terms of IC50 is 0.28

The reported value for CCN[C@@H](CCCCCC(=O)c1ncco1)c1ncc(-c2ccc3nc(C)ccc3c2)[nH]1 [Example 74] in terms of IC50 is 1.8
